B1: DYRK1B (parent)
chain: KKVLNHGYDDDNHDYIVRSGERWL

# Variants of: B1
# ASSAY_EXPLANATION: protein stability index of a GFP-peptide fusion (GPS, HEK-293T) (PSI 1-6); higher = more stable;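 note: lentivirally expressed fusions sorted by FACS into six bins by GFP to DsRed ratio, PSI derived from sequencing read proportions per bin multiplied by bin number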
# ASSAY_CONTEXT: c terminus: a fixed tail appended
Listed here: items and their measured protein stability index.
MEASURED_ENDPOINT: protein stability index

variant_code=K2R assay_result=3.13
variant_code=N12V assay_result=2.64
variant_code=V3L assay_result=2.88
variant_code=D9V assay_result=2.67
variant_code=D9G assay_result=2.51
variant_code=D9E assay_result=3.96
variant_code=Y15N assay_result=3.88
variant_code=L24H assay_result=3.57
variant_code=D14M assay_result=2.58
variant_code=Y15G assay_result=3.82
variant_code=W23E assay_result=4.46
variant_code=D11M assay_result=2.59
variant_code=V3K assay_result=3.08
variant_code=D9Y assay_result=2.17
variant_code=R22S assay_result=3.35
variant_code=L4W assay_result=3.1
variant_code=D9R assay_result=2.74
variant_code=K1Q assay_result=2.74
variant_code=K2L assay_result=2.12
variant_code=H6V assay_result=2.84
variant_code=H6K assay_result=3.52
variant_code=D9L assay_result=2.39
